- Tgt: RAF kinases (Homo sapiens, UniProt P15056)
- Sequence (P15056 whole entry): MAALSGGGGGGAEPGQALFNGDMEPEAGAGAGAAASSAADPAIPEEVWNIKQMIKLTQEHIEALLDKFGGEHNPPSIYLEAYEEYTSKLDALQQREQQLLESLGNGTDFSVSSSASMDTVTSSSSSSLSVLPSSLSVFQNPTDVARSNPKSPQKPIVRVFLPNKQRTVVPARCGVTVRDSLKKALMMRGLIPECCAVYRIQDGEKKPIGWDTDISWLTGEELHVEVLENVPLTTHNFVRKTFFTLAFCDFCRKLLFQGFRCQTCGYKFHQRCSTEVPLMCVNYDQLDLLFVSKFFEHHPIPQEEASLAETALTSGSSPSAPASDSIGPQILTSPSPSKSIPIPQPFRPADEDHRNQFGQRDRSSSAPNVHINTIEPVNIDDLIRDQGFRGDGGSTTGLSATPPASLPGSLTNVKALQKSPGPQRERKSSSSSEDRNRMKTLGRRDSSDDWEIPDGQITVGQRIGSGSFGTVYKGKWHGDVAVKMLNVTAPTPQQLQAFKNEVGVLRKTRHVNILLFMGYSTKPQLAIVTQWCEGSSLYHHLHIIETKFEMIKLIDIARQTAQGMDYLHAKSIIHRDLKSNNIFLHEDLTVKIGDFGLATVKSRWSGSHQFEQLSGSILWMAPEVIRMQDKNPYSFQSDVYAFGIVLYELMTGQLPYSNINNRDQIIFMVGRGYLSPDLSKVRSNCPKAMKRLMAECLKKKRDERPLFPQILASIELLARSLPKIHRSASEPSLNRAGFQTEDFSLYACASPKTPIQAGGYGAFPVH
- Run parameters: read-out: BRAF WT Kd; BRAF WT
pKd: −log10 of the molar value.
Measurement name: pKd

* COc1ccc(-n2nc(C(C)C)cc2NC(=O)Nc2cccc(Oc3ncnc4cc(OC)c(OC)cc34)c2)cc1 [Ex 348] | < 6.00
* COc1cc2ncnc(Sc3cccc(NC(=O)Nc4cc(C(F)(F)F)no4)c3)c2cc1OC [Ex 382] | > 6.60
* COc1cc2ncnc(Oc3cccc(NC(=O)Nc4cccc(C(C)(C)C#N)c4)c3)c2cc1OC [Ex 278] | > 6.60
* COc1cc2ncnc(Sc3cccc(NC(=O)Nc4cc(C(C)(C)C)nn4-c4ccccc4C)c3)c2cc1OC [Ex 343] | < 6.00
* COCCOc1cc2ncnc(Oc3cccc(NC(=O)Nc4cc(C(F)(F)F)n(-c5ccccc5)n4)c3)c2cc1OC [Ex 225] | < 6.00
* COc1cc2ncnc(Sc3cccc(NC(=O)Nc4cc(C(C)(C)C)nn4-c4ccccc4C(F)(F)F)c3)c2cc1OC [Ex 375] | < 6.00
* COc1cc2ncnc(Oc3cccc(NC(=O)Nc4cc(C(C)(C)C)nn4-c4ccccc4)c3F)c2cc1OC [Ex 295] | < 6.00
* COc1cc2ncnc(Sc3cccc(NC(=O)Nc4cc(C5(C(F)(F)F)CC5)nn4-c4ccc(C)cc4)c3)c2cc1OC [Ex 347] | < 6.00
* COCCOc1cc2ncnc(Sc3cccc(NC(=O)Nc4cc(C(F)(F)F)nn4-c4ccc(C)cc4)c3)c2cc1OC [Ex 243] | < 6.00
* COc1cc2ncnc(Oc3ccc(F)c(NC(=O)Nc4cc(C(C)(C)C)nn4-c4ccccc4)c3)c2cc1OC [Ex 368] | < 6.00
* COc1cc2ncnc(Sc3cccc(NC(=O)Nc4cc(C(C)(C)C(F)(F)F)no4)c3)c2cc1OC [Ex 268] | > 6.60
* COc1cc2ncnc(Oc3cc(NC(=O)Nc4cc(C(C)(CF)CF)on4)ccc3F)c2cc1OC [Ex 294] | > 6.60
* COc1cc2ncnc(Oc3ccc(F)c(NC(=O)Nc4cc(C(C)(C)C)on4)c3)c2cc1OC [Ex 367] | > 6.60
* COc1cc2ncnc(Oc3cccc(NC(=O)Nc4cc(C(C)(C)C(F)(F)F)no4)c3)c2cc1OC [Ex 267] | > 6.60
* COc1cc2c(Oc3cccc(NC(=O)Nc4cc(C(C)(C)F)no4)c3)ncnc2cc1O [Ex 257] | > 6.60
* COc1cc2c(Oc3cccc(NC(=O)Nc4cc(C(C)(C)C)on4)c3)ncnc2cc1OCCCN1CCS(=O)(=O)CC1 [Ex 256] | > 6.60
